TESTED_SYSTEM: Alpha-2C adrenergic receptor (Homo sapiens)
EXPERIMENTAL_PROTOCOL: modulators of alpha2C/GIRK thallium flux, primary screen, cell-based, HEK293 alpha2C/GIRK1/2 (AID 624);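 also: slope of fluorescence ratio to pre-addition baseline per second over 15 to 24 s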
ASSAY_SETUP: thallium flux BTC fluorescence, at 10 µM, actives lie on both sides
MEASURED_PARAMETER: slope
In your answer, state the number alone without any accompanying words.

# input Field request: slope | item: COc1cccc(C(=O)N2CCN(S(=O)(=O)Cc3ccccc3)CC2)c1OC
# output 0.00419

# input Field request: slope | item: Cc1ccc(SCc2c(C#N)c3ccccc3n2C)cc1
# output 0.00992

# input Field request: slope | item: CCOC(=O)C1=C(C)N=C2SC(C)C(=O)N2C1c1cccc(F)c1 (stereo not drawn)
# output 0.00424

# input Field request: slope | item: CC(=O)O[C@]1(C(C)=O)CC[C@H]2[C@@H]3C=C(C)C4=CC(=O)CC[C@]4(C)[C@H]3CC[C@@]21C
# output 0.00287

# input Field request: slope | item: CCCCc1nc(NCCN2CCOCC2)c(C#N)c2c1COC(C)(C)C2
# output 0.00518

# input Field request: slope | item: CCCOC(=O)CSC1=C(C#N)C(c2ccccc2OC)C(C#N)C(=O)N1 (stereo not drawn)
# output 0.00543

# input Field request: slope | item: Nc1ccc2c(c1)N1CCN=C1S2
# output 0.00512

# input Field request: slope | item: CCCCC[C@H](O)/C=C/[C@@H]1[C@@H](CCCCCCC(=O)O)[C@@H](O)C[C@H]1O
# output 0.00481

# input Field request: slope | item: CC(C)N1CCc2c(sc(N)c2C#N)C1
# output 0.00503

# input Field request: slope | item: CN1CCC(=C2c3ccccc3C=Cc3ccccc32)CC1
# output 0.00408

# input Field request: slope | item: N#CC1=C(N)NC(SCc2ccc(F)cc2)=C(C#N)C12CCCCC2
# output 0.0043

# input Field request: slope | item: CCOC(=O)C1/C(=N\O)CC(C)(O)C(C(=O)OCC)C1c1ccc(N(C)C)cc1 (stereo not drawn)
# output 0.00546

# input Field request: slope | item: CCOC(=O)N1CCC(=C2c3ccc(Cl)cc3CCc3cccnc32)CC1
# output 0.00337

# input Field request: slope | item: C[C@]12CC[C@@H]3c4ccc(OS(=O)(=O)O)cc4CC[C@H]3[C@@H]1CCC2=O
# output 0.00404

# input Field request: slope | item: Cc1cc(=O)oc(C)c1C(=O)NCCN1CCOCC1
# output 0.00592

# input Field request: slope | item: N#CCc1nc2c3c4c(sc3ncn2n1)CCCC4
# output 0.00471

# input Field request: slope | item: COC(=O)c1cc(Br)c(=O)n(Cc2ccc3c(c2)OCO3)c1
# output 0.00422

# input Field request: slope | item: CCC1(C)Cc2c(sc3c2c(=O)n(C)c2nnc(SCC(=O)c4ccc(Cl)cc4)n32)CO1 (stereo not drawn)
# output 0.00685

# input Field request: slope | item: Cc1ccc(N(CC(=O)O)C2SC(=O)NC2=O)cc1 (stereo not drawn)
# output 0.00492

# input Field request: slope | item: CCn1cc(C(=O)NCC2CCCO2)c(=O)c2cc(F)c(N3CCN(C)CC3)cc21 (stereo not drawn)
# output 0.00486

# input Field request: slope | item: COC(=O)c1sc(NC(=O)C(C)C)c(C(=O)OC)c1C
# output 0.00623

# input Field request: slope | item: CN(C)CCN(Cc1ccccc1)c1ccccn1
# output 0.00588

# input Field request: slope | item: Cc1cc(C)cc(-n2c3nc4ccccc4nc3c3c(=O)n(Cc4ccco4)cnc32)c1
# output 0.0051
